# Test system: IL-6 in THP-1 cells
# measurement.notes: IL-6 inhibition in LPS-stimulated THP-1 human monocyte cells (HTRF)
# Assay type: cell-based
# run.parameters: IL-6 inhibition, LPS-stimulated THP-1 cells, HTRF, 10-point dose-response starting from 10 μM
parameter.measured: EC50 (nM)

Here is how some compounds turned out for EC50.
Would you kindly share the measured EC50 for CCCC(=O)Nc1cncc(-c2cnc3[nH]nc(-c4cc5c(-c6ccccc6F)nccc5[nH]4)c3c2)c1 [Compound 73] ?
36

Would you kindly share the measured EC50 for CC(C)CC(=O)Nc1cncc(-c2cnc3[nH]nc(-c4cc5c(-c6cc(F)cc(CNS(C)(=O)=O)c6)nccc5[nH]4)c3c2)c1 [Compound 478] ?
537

Would you kindly share the measured EC50 for CC(C)Nc1cncc(-c2cnc3[nH]nc(-c4cc5c(N6CCCCC6)nccc5[nH]4)c3c2)c1 [Compound 180] ?
2130

Would you kindly share the measured EC50 for O=C(Nc1cncc(-c2cnc3[nH]nc(-c4cc5c(-c6ccc(F)cc6)nccc5[nH]4)c3c2)c1)C1CCC1 [Compound 49] ?
1480

[I] c1cc2[nH]c(-c3n[nH]c4ncc(-c5cncc(CN6CCCCC6)c5)cc34)cc2cn1 [Compound 267]
[II] FC1(F)CCN(Cc2cncc(-c3cnc4[nH]nc(-c5cc6c(-c7ccoc7)nccc6[nH]5)c4c3)c2)C1 [Compound 334]
[III] CC(C)(C)CC(=O)Nc1cncc(-c2cnc3[nH]nc(-c4cc5cnccc5[nH]4)c3c2)c1 [Compound 268]
[IV] O=C(Nc1cncc(-c2cnc3[nH]nc(-c4cc5c(-c6cccs6)nccc5[nH]4)c3c2)c1)C1CCC1 [Compound 357]
# rank by EC50, ascending (min first) // list labels; follow requested order
II, IV, III, I

[A] CCNCc1cncc(-c2cnc3[nH]nc(-c4cc5c(-c6ccccc6F)nccc5[nH]4)c3c2)c1 [Compound 62]
[B] Fc1ccc(-c2nccc3[nH]c(-c4n[nH]c5ncc(-c6cncc(CNCc7ccccc7)c6)cc45)cc23)cc1 [Compound 52]
Between the entries labeled A and B , whose measured EC50 is lower? Identify your pick by its label.
B

###

# System: IL-6 in THP-1 cells
# measurement.notes: IL-6 inhibition in LPS-stimulated THP-1 human monocyte cells (HTRF)
# Assay type: cell-based
# run.parameters: IL-6 inhibition, LPS-stimulated THP-1 cells, HTRF, 10-point dose-response starting from 10 μM
parameter.measured: EC50 (µM)

Give EC50 (IL-6 in THP-1 cells) of the following compound: Fc1ccc(-c2nccc3[nH]c(-c4n[nH]c5ncc(-c6cncc(CN7CCCC7)c6)cc45)cc23)cc1 [Compound 42]
3.99

[a] FC1(F)CCN(Cc2cncc(-c3cnc4[nH]nc(-c5cc6c(-c7ccncc7)nccc6[nH]5)c4c3)c2)C1 [Compound 138]
[b] Cc1ccncc1-c1cnc2[nH]nc(-c3cc4c(-c5cc(F)cc(CNS(C)(=O)=O)c5)nccc4[nH]3)c2c1 [Compound 481]
Between a and b , which one shows the larger EC50 value? Identify your pick by its label.
a
(a: 3.63 µM, b: 0.307 µM)

###

# Test system: IL-6 in THP-1 cells
# measurement.notes: IL-6 inhibition in LPS-stimulated THP-1 human monocyte cells (HTRF)
# Type: cell-based
# run.parameters: IL-6 inhibition, LPS-stimulated THP-1 cells, HTRF, 10-point dose-response starting from 10 μM
parameter.measured: EC50

Here is how some compounds turned out for EC50.
Would you kindly share the measured EC50 for c1cc(-c2cnc3[nH]nc(-c4cc5c(N6CCCCC6)nccc5[nH]4)c3c2)ccn1 ?
> 10 µM

Would you kindly share the measured EC50 for O=C(Nc1cncc(-c2cnc3[nH]nc(-c4cc5cnccc5[nH]4)c3c2)c1)C1CCCCC1 ?
0.447 µM

Would you kindly share the measured EC50 for CS(=O)(=O)NCc1cc(F)cc(-c2nccc3[nH]c(-c4n[nH]c5ncc(-c6cncc(OCc7ccccc7)c6)cc45)cc23)c1 ?
> 10 µM

Moving on to another compound below.
Would you kindly share the measured EC50 for CC(C)(C)C(=O)Nc1cncc(-c2cnc3[nH]nc(-c4cc5c(N6CCCCC6)nccc5[nH]4)c3c2)c1 ?
> 10 µM
